# Test system: iBMDM (immortalised mouse bone-marrow-derived macrophages), LPS-stimulated
# experimentalProtocol: mitochondrial superoxide (MitoSOX fluorescence) fold increase over unstimulated control; higher = more LPS-induced mitochondrial ROS (less inhibition)
# experimentalConditions: inhibitor concentration: 500 nM; LPS: 100 ng/ml; time after LPS: 1 h
Entries and their measured mitochondrial superoxide follow.
When you answer, write just the number.

Observe how each entry below is paired with its result.
Cc1cc(Nc2ncc(Cl)c(Nc3ccccc3S(=O)(=O)C(C)C)n2)c(OC(C)C)cc1C1CCNCC1 ... 1.2
CS(=O)(=O)c1ccc(-c2cnc(N)c(C(=O)Nc3ccccc3)n2)cc1 ... 1.23
Nc1nccc(Oc2ccc(NC(=O)c3c[nH]cc(-c4ccc(F)cc4)c3=O)cc2F)c1Cl ... 1.21
Nc1nc(N)c2nc(-c3cccc(O)c3)cnc2n1 ... 1.03
Cc1cnc(Nc2ccc(N3CCN(C)CC3)cc2)nc1Nc1cccc(S(=O)(=O)NC(C)(C)C)c1 ... 1.36
O=C1NC(=O)/C(=C/c2ccc3c(c2)OC(F)(F)O3)S1 ... 1.26
O=C(Cc1ccc(-c2ccc(OCCN3CCOCC3)cc2)cn1)NCc1ccccc1 ... 1.31
C=CC(=O)Nc1ccc2ncnc(Nc3ccc(OCc4cccc(F)c4)c(Cl)c3)c2c1 ... 1.18
NC1(c2ccc(-c3nc4ccn5c(=O)[nH]nc5c4cc3-c3ccccc3)cc2)CCC1 ... 1.26
CCCNC(=O)Nc1ccc(Oc2ncnc3cc(OC)c(OC)cc23)cc1Cl ... 1.15

### Prompt Report mitochondrial superoxide for "COc1cc2ncnc(Nc3ccc(O)c(Br)c3)c2cc1OC" please.
### Response 1.04

### Prompt And then "COc1cc2ncnc(Nc3cccc(Cl)c3)c2cc1OC" , what is it?
### Response 1.11

### Prompt And then "CCn1cc(-c2ccnc3[nH]c(-c4cccc(CN(C)C)c4)cc23)c(-c2ccc(NC(=O)N(C)C)cc2)n1" , what is it?
### Response 1.27

### Prompt And then "Cn1cc(-c2[nH]c3cc(NC(=O)[C@H](N)C4CCCCC4)cc4c3c2C=NNC4=O)cn1" , what is it?
### Response 1.15

### Prompt And then "Nc1cccc(-c2cc3c(Oc4cccc(O)c4)ncnc3[nH]2)c1" , what is it?
### Response 1.06

### Prompt And then "CCOc1ccn(-c2ccc(F)cc2)c(=O)c1C(=O)Nc1ccc(Oc2ccnc(N)c2Cl)c(F)c1" , what is it?
### Response 1.25

---

# System: iBMDM (immortalised mouse bone-marrow-derived macrophages), LPS-stimulated
# experimentalProtocol: mitochondrial superoxide (MitoSOX fluorescence) fold increase over unstimulated control; higher = more LPS-induced mitochondrial ROS (less inhibition)
# experimentalConditions: inhibitor concentration: 500 nM; LPS: 100 ng/ml; time after LPS: 2 h
Structures can show the parent of a compound that is named as a salt.
resultType: mitochondrial superoxide
When you answer, write just the number.

Observe how each entry below is paired with its result.
O=C(O)c1ccc(Nc2ncc3c(n2)-c2ccc(Cl)cc2C(c2c(F)cccc2F)=NC3)cc1 ... 1.45
O=C(Nc1cc(C(F)(F)F)cc(C(F)(F)F)c1)c1cc(Cl)ccc1O ... 1.04
C#Cc1cccc(Nc2ncnc3cc(OCCOC)c(OCCOC)cc23)c1 [Erlotinib HCl (OSI-744)] ... 1.66
CCn1cc(-c2ccnc3[nH]c(-c4cccc(CN(C)C)c4)cc23)c(-c2ccc(NC(=O)N(C)C)cc2)n1 ... 1.45
CS(=O)(=O)CCNCc1ccc(-c2ccc3ncnc(Nc4ccc(OCc5cccc(F)c5)c(Cl)c4)c3c2)o1 ... 1.72

### Prompt Report mitochondrial superoxide for "OCCn1cc(-c2ccc3c(c2)CC/C3=N\O)c(-c2ccncc2)n1" please.
### Response 1.45

### Prompt And then "COc1cc2ncnc(Nc3ccc(F)c(Cl)c3)c2cc1NC(=O)/C=C/CN1CCCCC1" , what is it?
### Response 1.48

### Prompt And then "CNC(=O)c1ccc(C)c(-n2c(C)cc(OCc3ccc(F)cc3F)c(Br)c2=O)c1" , what is it?
### Response 1.48

### Prompt And then "CCc1cc(Nc2nccc(-c3c(-c4ccc(OC)c(C(=O)Nc5c(F)cccc5F)c4)nc4ccccn34)n2)c(OC)cc1N1CCC(N2CCN(S(C)(=O)=O)CC2)CC1" , what is it?
### Response 1.4

### Prompt And then "C=CC(=O)Nc1cccc(Oc2nc(Nc3ccc(N4CCN(C)CC4)cc3)ncc2Cl)c1" , what is it?
### Response 1.71

meta.source: the supplement of paper PMC7393113
